System: UACC-62 melanoma
test protocol: NCI-60 one-dose screen, 48 h
assay conditions: 10 µM unless noted
The panel holds about 83,000 compounds, 20% with a hit somewhere; the sample as a whole holds those more often. The source made the active and inactive calls. Rule for the calls: active = growth percent below 10; inactive = the rest.
Classes used: YES = active, NO = inactive

molecule	assigned category
COC(=O)[C@]1(C)CCC[C@]2(C)[C@H]3C[C@@H]4[C@H]5[C@@H]6CC/C(=N\OCC/C(N)=N/O)[C@H]5[C@@]3(CC[C@H]21)CC4(C(C)C)O6	NO
CC1=C(Cl)C(=O)c2cc(C)ccc2C1=O	NO
O=S(=O)(Nc1ccc2ccccc2c1)c1ccc(-c2cnc(C3CC3)o2)cc1	NO
COc1cc2c(c(OC)c1OC)CCC(c1cccc(C(=O)Nc3ccc(Br)cc3)c1)O2 (stereo not given)	NO
COc1cc(C=Nc2oc(-c3ccccc3)c(-c3ccccc3)c2C#N)cc(CN2CCCC2)c1O	NO
O=[N+]([O-])c1ccccc1Nc1ccc2ccccc2c1	NO
CCOc1ncc([N+](=O)[O-])c(OCC)n1	NO
Fc1cc2[nH]ncc2c2c3c(c(-c4cn[nH]c4C(F)(F)F)nc12)CCCC3	YES
O=c1ccc2ccc(OCCN3CCCCC3)cc2o1	NO
C=CC(=O)Nc1cccc(Oc2nccc(Nc3nnc(-c4ccc(Br)cc4)s3)n2)c1	NO
COC(=O)c1ccc2c(c1)c1c(C)c3cnccc3c(C)c1n2C	YES
C=CN(C(=O)N1CCN(c2cc3c(cc2F)c(=O)c(C(=O)O)cn3C2CC2)CC1)c1nc(-c2ccccc2)cs1	NO
COc1ccc(C(c2cc(OC)c(OC)c(OC)c2)N2CCCCC2)cc1 (stereo not given)	NO
CN1CCN(Cc2ccc(NC(=O)c3cncc(C#Cc4cnc(N)cc4C#N)c3)cc2C(F)(F)F)CC1	YES
C=C1C(=O)O[C@@H]2C3C(=C(C)CC[C@@H]12)CC1O[C@]13C (stereo not given in full)	NO
CCOC(=O)/C(=C(/C)NCC(C)C)c1cc(O)c(O)c2c(C)cc(=O)[nH]c12	NO
COc1cc(-c2ccc[nH]2)[nH]c1/C=C1\N=C(C)C(CC(=O)OCC(C)(C)C)=C1C	YES
O=C(c1c[nH]c2ccccc12)c1n[nH]c(=S)n1-c1ccc([N+](=O)[O-])cc1	NO
COc1cc2c(c(OC)c1OC)C(=O)CC(c1cccc(C(=O)Nc3ccccc3Br)c1)O2 (stereo not given)	NO
CCCCn1c(NC(C)=O)c(S(=O)(=O)c2ccccc2)c2nc3ccccc3nc21	NO
